Where do these numbers come from? They come from ChEMBL document CHEMBL1201862.

tested on: NCI-H23; assay: NCI tumour cell line growth inhibition, 48 h
Active and inactive are the calls of the source. Rule as the data show it: active = GI50 up to about 1.1 µM and inactive = higher.
Mark one answer only. Choices: active, inactive

Illustrative cases are given below, each with its answer.
molecule: COC1CCC(OS(C)(=O)=O)C(CO)O1 (stereo not given)
class: inactive

molecule: CC(=O)OCC1OC(N2C(=O)C(=O)c3ccccc32)C(OC(C)=O)C(OC(C)=O)C1OC(C)=O (stereo not given)
class: inactive

Exercise: What did the test return for `O=C1c2ccccc2C(=O)N1Cc1ccccc1-c1c2nc(c(-c3ccccc3CN3C(=O)c4ccccc4C3=O)c3ccc([nH]3)c(-c3ccccc3CN3C(=O)c4ccccc4C3=O)c3nc(c(-c4ccccc4CN4C(=O)c5ccccc5C4=O)c4ccc1[nH]4)C=C3)C=C2` ?
Key: inactive

Exercise: What did the test return for CCCCC(O)(c1ccccc1)C(O)(c1ccccc1)c1c(F)c(F)c(F)c(F)c1F (stereo not given) ?
Key: inactive

Exercise: What did the test return for `Cc1cccc2c1[nH]c1[nH]c(=O)[nH]c(=O)c12` ?
Key: inactive

Exercise: What did the test return for `O=C(O)CCCC(=O)Nn1c(Cc2ccc(Cl)cc2)n[nH]c1=O` ?
Key: inactive
